Target: T1, human neuropeptide Y2 receptor (human, UniProt P49146 1-381)
T1 sequence (looked up): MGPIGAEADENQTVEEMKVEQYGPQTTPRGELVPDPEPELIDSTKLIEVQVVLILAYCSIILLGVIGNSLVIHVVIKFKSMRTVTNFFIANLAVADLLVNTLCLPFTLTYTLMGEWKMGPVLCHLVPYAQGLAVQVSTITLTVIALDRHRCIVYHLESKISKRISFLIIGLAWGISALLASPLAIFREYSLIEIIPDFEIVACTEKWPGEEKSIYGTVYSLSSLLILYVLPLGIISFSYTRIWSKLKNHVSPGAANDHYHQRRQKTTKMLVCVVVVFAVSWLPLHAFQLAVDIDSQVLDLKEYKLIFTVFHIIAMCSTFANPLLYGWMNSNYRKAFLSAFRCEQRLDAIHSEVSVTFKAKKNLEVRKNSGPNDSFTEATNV
Assay: cell-based or functional assay
Starred links: 1 amine or outer side, 2 acyl side, 3 side chain; linkers in the order of their positions; H or OH if unused. Non-standard residues stand in square brackets, D forms with d. Groups on a side chain read outwards from the residue. No end group written: not given here. *: point of attachment. C20 diacid = O=C(O)CCCCCCCCCCCCCCCCCCC(=O)*; C18 diacid = O=C(O)CCCCCCCCCCCCCCCCC(=O)*; γGlu = O=C(O)[C@H](CCC(=O)[*:2])N[*:1]; εLys = N[C@@H](CCCCN[*:1])C(=O)[*:2]; AEEA = NCCOCCOCC(=O)O; Aib = CC(C)(N)C(=O)O
Category key, based on recorded EC50 CreLuc hNPY2R 100% hP: bin 1 = under 40 nM, bin 2 = from 40 nM up to 50 nM, bin 3 = 50 nM and over

- binder: "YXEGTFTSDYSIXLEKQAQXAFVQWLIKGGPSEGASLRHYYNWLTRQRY (Aib at 2, 13, 20; NMeR at 48; K28 side chain: C20DA-gGlu-gGlu-gGlu-gGlu-gGlu-gGlu-eLys; C-terminal NH2) [Compound 125]"
  label: "bin 3"
- binder: "YXEGTFTSDYSIXLEKQAQXAFVEWLIKGGPSSGVSLRHYYNWLTRQRY (Aib at 2, 13, 20; K28 side chain: C20DA-gGlu-gGlu-gGlu-gGlu-gGlu-gGlu-eLys; C-terminal NH2) [Compound 96]"
  label: "bin 2"
- binder: "YXEGTFTSDYSIXLDKQAQXAFVEWLIKGGPSSGASLRHYYNWLTRQRY (Aib at 2, 13, 20; K28 side chain: C20DA-gGlu-gGlu-gGlu-gGlu-gGlu-gGlu-eLys; C-terminal NH2) [Compound 128]"
  label: "bin 3"
- binder: "Y[Aib]EGTFTSDYSI[Aib]LEKQAQ[Aib]AFVQWLIK([AEEA-AEEA-γGlu-γGlu-γGlu-γGlu-C18 diacid])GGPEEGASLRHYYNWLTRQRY-NH2 [Compound 146]"
  label: "bin 1"
- binder: "Y[Aib]EGTFTSDYSI[Aib]LEKQAQ[Aib]AFVEWLLKGGPSSGASLRHYYNWLTRQRY-NH2 (not fully specified (residue 28)) [Compound 109]"
  label: "bin 3"
- binder: "YXEGTFTSDYSIXLEKQAQXAFVEWLIKGGPSSGASVRHYYNWLTRQRY (Aib at 2, 13, 20; K28 side chain: C20DA-gGlu-gGlu-gGlu-gGlu-gGlu-gGlu-eLys; C-terminal NH2) [Compound 117]"
  label: "bin 1"
- binder: "YXEGTFTSDYSIXLEKAAQXAFVEWLIKGGPSSGASLRHYYNWLTRQRY (Aib at 2, 13, 20; K28 side chain: C20DA-gGlu-gGlu-gGlu-gGlu-gGlu-gGlu-eLys; C-terminal NH2) [Compound 136]"
  label: "bin 3"
- binder: "YXEGTFTSDYSIXLESQAQXAFVEWLIKGGPSSGASLRHYYNWLTRQRY (Aib at 2, 13, 20; K28 side chain: C20DA-gGlu-gGlu-gGlu-gGlu-gGlu-gGlu-eLys; C-terminal NH2) [Compound 121]"
  label: "bin 3"
- binder: "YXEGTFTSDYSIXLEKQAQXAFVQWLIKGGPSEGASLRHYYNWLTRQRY (Aib at 2, 13, 20; NMeQ at 47; K28 side chain: C20DA-gGlu-gGlu-gGlu-gGlu-gGlu-gGlu-eLys; C-terminal NH2) [Compound 115]"
  label: "bin 1"
- binder: "YXEGTFTSDYSIXLEDQAQXAFVEWLIKGGPSSGASLRHYYNWLTRQRY (Aib at 2, 13, 20; K28 side chain: C20DA-gGlu-gGlu-gGlu-gGlu-gGlu-gGlu-eLys; C-terminal NH2) [Compound 90]"
  label: "bin 3"
- binder: "YXEGTFTSDYSIXLEKQAQXAFVEWLIKGGPSSGATLRHYYNWLTRQRY (Aib at 2, 13, 20; K28 side chain: C20DA-gGlu-gGlu-gGlu-gGlu-gGlu-gGlu-eLys; C-terminal NH2) [Compound 91]"
  label: "bin 3"
- binder: "YXEGTFTSDYSIXLEKQAQXAFVQWLIKGGPSEGVSLRHYYNWLTRQRY (Aib at 2, 13, 20; K28 side chain: C20DA-gGlu-gGlu-gGlu-gGlu-gGlu-gGlu-eLys; C-terminal NH2) [Compound 114]"
  label: "bin 2"
- binder: "Y[Aib]EGTFTSDYSI[Aib]LEEQAQ[Aib]AFVEWLIK([εLys-AEEA-γGlu-γGlu-γGlu-γGlu-γGlu-C20 diacid])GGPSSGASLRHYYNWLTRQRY-NH2 [Compound 110]"
  label: "bin 2"
- binder: "YXEGTFTSDYSIXLEKQAQXAFVEWLIKGGPSSGASLRHYINWLTRQRY (Aib at 2, 13, 20; K28 side chain: C20DA-gGlu-gGlu-gGlu-gGlu-gGlu-gGlu-eLys; C-terminal NH2) [Compound 106]"
  label: "bin 3"
- binder: "Y[Aib]EGTFTSDYSI[Aib]LEKQAQ[Aib]AFVQWLIK([AEEA-AEEA-γGlu-γGlu-Glu-γGlu-C20 diacid])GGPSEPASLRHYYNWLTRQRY-NH2 [Compound 165]"
  label: "bin 1"
- binder: "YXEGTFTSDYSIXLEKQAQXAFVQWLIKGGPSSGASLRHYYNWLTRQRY (Aib at 2, 13, 20; K28 side chain: C18DA-gGlu-gGlu-gGlu-gGlu-gGlu-OEG-OEG; C-terminal NH2) [Compound 167]"
  label: "bin 1"
- binder: "Y[Aib]EGTFTSDYSI[Aib]LEKQAQ[Aib]EFVEWLIK([εLys-γGlu-γGlu-γGlu-γGlu-γGlu-γGlu-γGlu-C20 diacid])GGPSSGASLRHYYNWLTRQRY-NH2 [Compound 88]"
  label: "bin 2"

src = patent US20240247080A1
